Measured CC50 by item
- System: P4 cells
- assay-remarks: Cytotoxicity (CC50), MTT assay on P4 cells
- Format: cell-based
- study-conditions: 3 days
Report the figure in µM without appending any unit label.

# annotated cases, reported CC50 shown
CCc1c(C)[nH]c(=O)c(CSCCOC(=O)CCl)c1OC1CC(C)CC(C)C1 (centres unmarked) :: 27.5
CCOC(=O)c1c(OC2CCCCCCC2)c(CC)c(C)[nH]c1=O :: 58
CCOC(=O)c1c(OC2CCCCCC2)c(CC)c(C)[nH]c1=O :: 81

With those in mind, consider the next molecule.
Challenge: Report value: CC50, system: P4 cells, molecule: CCOC(=O)c1c(OC2CC(C)CC(C)C2)c(CC)c(C)[nH]c1=O (single isomer, unassigned) [Z37inv]
Response given: 64

* * *

- Tested on: HIV-1 mutant Asn103RT in TZM-bl cells
- assay-remarks: Anti-HIV assay on TZM-bl cells, Asn103RT mutant
- Format: cell-based
- study-conditions: Human immunodeficiency virus 1, TZM-bl, read-out: EC50 Asn103RT TZM-bl
reported-metric: EC50 (nM)
Report the figure in nM without appending any unit label.

CCc1c(C)[nH]c(=O)c([N+](=O)[O-])c1OC1CC(C)CC(C)C1 (stereo not shown) :: 355
Cc1ccnc2c1NC(=O)c1cccnc1N2C1CC1 [Nevirapine, reference compound] :: 2100
O=C1Nc2ccc(Cl)cc2[C@@](C#CC2CC2)(C(F)(F)F)O1 [Efavirenz, reference compound] :: 35

With those in mind, consider the next compound.
Challenge: Return EC50 for the following compound: CCc1c(C)[nH]c(=O)c(N(C)C)c1OC1CC(C)CC(C)C1 (stereo not shown)
Response given: 11

* * *

- Test system: HIV-1 mutant Ile108RT in MT4 cells
- assay-remarks: Anti-HIV assay on MT4 cells, Ile108RT mutant
- Assay type: cell-based
- study-conditions: Human immunodeficiency virus 1, MT4, read-out: EC50 Ile108RT MT4
Measured EC50 by item
Report the figure in µM without appending any unit label.

CCc1c(C)[nH]c(=O)c([N+](=O)[O-])c1OC1CC(C)CC(C)C1 (stereo not shown) :: 0.072

With those in mind, consider the next molecule.
Challenge: Report value: EC50, system: HIV-1 mutant Ile108RT in MT4 cells, molecule: Cc1ccnc2c1NC(=O)c1cccnc1N2C1CC1 [Nevirapine, reference compound]
Response given: 1.27

* * *

Measured pEC50 by item
- Test system: HIV-1 mutant Ile100RT in TZM-bl cells
- assay-remarks: Anti-HIV assay on TZM-bl cells, Ile100RT mutant
- Type: cell-based
- study-conditions: TZM-bl, mutant Ile100RT; read-out: EC50 Ile100RT TZM-bl
- Source text: In order to introduce mutation(s) at the level of the pol gene coding for the RT in the pNL4-3 plasmid containing the complete viral genome (Adachi et al., 1986. J. Virol., Vol. 59 p 284-291) we used the “Quick change mutagenesis kit” (Stratagene). The following mutations were separately introduced in pNL4-3: L100I, K103N, V108I, Y181C, Y188C, and the double mutations K103N/V108I. These mutations were chosen because of the resistance that they confer to existing NNRTI. […]
Interpret pEC50 as the negative base-10 log of the concentration measured in mol/L.

CCc1c(C)[nH]c(=O)c(C)c1OC1CC(C)CC(C)C1 (stereo not shown) :: 7.40

Challenge: Return pEC50 for the following compound: CCc1c(C)[nH]c(=O)c(CN=[N+]=[N-])c1OC1CC(C)CC(C)C1 (stereo not shown)
Response given: 7.54

Challenge: Return pEC50 for the following compound: CCc1c(C)[nH]c(=O)c(CO)c1OC1CC(C)CC(C)C1 (stereo not shown)
Response given: 6.42

Challenge: Return pEC50 for the following compound: CCc1c(C)[nH]c(=O)c(CSC(C)=O)c1OC1CC(C)CC(C)C1 (stereo not shown)
Response given: 7.11

* * *

- assay-remarks: Cytotoxicity (CC50), MTT assay on P4 cells
- Format: cell-based
- study-conditions: human
reported-metric: CC50 at 3 days (µM)
Report the figure in µM without appending any unit label.

# annotated cases, reported CC50 at 3 days shown
CCc1c(C)[nH]c(=O)c(COC(=O)CCl)c1OC1CCCCCC1 :: 54
CCc1c(C)[nH]c(=O)c([N+](=O)[O-])c1OC1CC(C)CC(C)C1 (stereo not drawn) :: 37.2
O=C1Nc2ccc(Cl)cc2[C@@](C#CC2CC2)(C(F)(F)F)O1 [Efavirenz, reference compound] :: 40

Challenge: Return CC50 at 3 days for the following molecule: CCc1c(C)[nH]c(=O)c(CO)c1OC1CCCCCC1
Response given: 55

Challenge: Return CC50 at 3 days for the following molecule: CCc1c(C)[nH]c(=O)c(N(C)C)c1OC1CC(C)CC(C)C1 (stereo not drawn)
Response given: 66

Challenge: Return CC50 at 3 days for the following molecule: CCOC(=O)c1c(OC2CC(C)CC(C)C2)c(CC)c(C)[nH]c1=O (stereo not drawn)
Response given: 58

Challenge: Return CC50 at 3 days for the following molecule: CCc1c(C)[nH]c(=O)c(CSCCO)c1OC1CC(C)CC(C)C1 (stereo not drawn)
Response given: 27

* * *

- Test system: HIV-1 mutant Ile108RT in TZM-bl cells
- assay-remarks: Anti-HIV assay on TZM-bl cells, Ile108RT mutant
- Format: cell-based
- study-conditions: TZM-bl, mutant Ile108RT; read-out: EC50 Ile108RT TZM-bl
Measured EC50 by item
Report the figure in nM without appending any unit label.

CCc1c(C)[nH]c(=O)c(C)c1OC1CC(C)CC(C)C1 (stereo not shown) [Z154] :: 14

Challenge: Return EC50 for the following compound: CCc1c(C)[nH]c(=O)c(CN=[N+]=[N-])c1OC1CC(C)CC(C)C1 (stereo not shown) [Z153]
Response given: 1

Challenge: Return EC50 for the following compound: CCc1c(C)[nH]c(=O)c(CSC(C)=O)c1OC1CC(C)CC(C)C1 (stereo not shown) [Z114]
Response given: 12

Challenge: Return EC50 for the following compound: CCOC(=O)c1c(OC2CC(C)CC(C)C2)c(CC)c(C)[nH]c1=O (single isomer, unassigned) [Z37inv]
Response given: 1090

* * *

- Test system: HIV-1 with WT (wild type) RT in TZM-bl cells
- assay-remarks: Anti-HIV assay on TZM-bl cell line, WT RT
- Type: cell-based
- study-conditions: Human immunodeficiency virus 1
Measured EC50 by item

# annotated cases, reported EC50 shown
CCc1c(C)[nH]c(=O)c(N(C)C)c1OC1CC(C)CC(C)C1 (stereo not shown) :: < 1 nM
Cc1ccnc2c1NC(=O)c1cccnc1N2C1CC1 [Nevirapine, reference compound] :: 56 nM
CCc1c(C)[nH]c(=O)c([N+](=O)[O-])c1OC1CC(C)CC(C)C1 (stereo not shown) :: < 1 nM

Challenge: Report value: EC50, system: HIV-1 with WT (wild type) RT in TZM-bl cells, compound: O=C1Nc2ccc(Cl)cc2[C@@](C#CC2CC2)(C(F)(F)F)O1 [Efavirenz, reference compound]
Response given: < 1 nM

* * *

- Tested on: HIV-1 mutant Asn103/Ile108RT in P4 cells
- assay-remarks: Anti-HIV assay on P4 cells, Asn103/Ile108RT double mutant
- Type: cell-based
- study-conditions: Human immunodeficiency virus 1, read-out: EC50 Asn103/Ile108RT F4
reported-metric: EC50 (nM)
Report the figure in nM without appending any unit label.

O=C1Nc2ccc(Cl)cc2[C@@](C#CC2CC2)(C(F)(F)F)O1 [Efavirenz, reference compound] :: 9
CCc1c(C)[nH]c(=O)c([N+](=O)[O-])c1OC1CC(C)CC(C)C1 (stereo not shown) :: 180

Challenge: Return EC50 for the following molecule: Cc1ccnc2c1NC(=O)c1cccnc1N2C1CC1 [Nevirapine, reference compound]
Response given: 6250

Challenge: Return EC50 for the following molecule: CCc1c(C)[nH]c(=O)c(N(C)C)c1OC1CC(C)CC(C)C1 (stereo not shown)
Response given: 27

* * *

- target-of-assay: HIV-1 reverse transcriptase (Human immunodeficiency virus type 1 group M subtype B, UniProt P04585)
- Construct: fixed-time assay for HIV-1 reverse transcriptase RNA dependent DNA polymerase activity; RT was purchased from Calbiochem; purchased Calbiochem CAL382129-500
- assay-remarks: HIV-1 in vitro reverse transcriptase activity (fixed-time RNA dependent DNA polymerase assay)
- Assay type: biochemical
- study-conditions: residual RT activity, compound at 10 μM; RT activity without compound set at 100%
Label yes (1) when Relative (%) RT activity in vitro (compound added at 10 μM) is strictly below 10%; at or above that, label no (0).

CCc1c(C)[nH]c(=O)c([N+](=O)[O-])c1OC1CC(C)CC(C)C1 (stereo not drawn) :: yes (1)

Challenge: Lab log: compare recorded Relative (%) RT activity in vitro (compound added at 10 μM) with 10%; is it strictly lower for CCc1c(C)[nH]c(=O)c(CO)c1OC1CC(C)CC(C)C1 (stereo not drawn) ?
Response given: no (0)

Challenge: Lab log: compare recorded Relative (%) RT activity in vitro (compound added at 10 μM) with 10%; is it strictly lower for CCOC(=O)c1c(OC2CC(C)CC(C)C2)c(CC)c(C)[nH]c1=O (single isomer, unassigned) [Z37inv] ?
Response given: yes (1)
